Data origin, for the record: patent US20260274955A1

Target: T1, anti-CD28 Fab (SEQ ID NOs: 202, 203)
T1 construct: biotinylated and captured on neutravidin coated plates in the phage ELISA
T1 sequence (VH, as listed by the source, chain 1 of 2): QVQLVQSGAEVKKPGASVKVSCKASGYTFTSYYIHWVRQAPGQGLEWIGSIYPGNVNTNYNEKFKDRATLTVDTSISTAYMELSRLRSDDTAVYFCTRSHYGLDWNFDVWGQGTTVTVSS
T1 sequence (VL, as listed by the source, chain 2 of 2): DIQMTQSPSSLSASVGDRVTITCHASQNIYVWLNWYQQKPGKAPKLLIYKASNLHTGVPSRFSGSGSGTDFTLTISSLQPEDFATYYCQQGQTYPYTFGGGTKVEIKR
Test: phage ELISA on captured Fab, wells pre-incubated with CD28 antigen (competitor);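 note: clonal phage ELISA with wells pretreated with CD28 plus blocking buffer before phage addition, bound phage detected by HRP-linked anti-M13 antibody, reference wells got blocking buffer only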
Below, each of the binders is paired with its reported Anti-CD28 Fab signal in the presence of CD28 value.
RECORDED ENDPOINT: Anti-CD28 Fab signal in the presence of CD28

* YCEGHSWEHMEKCL (on phage, pIII fusion) [Phage-523] | 0.06
* YCDGHSPEYMLKCL (on phage, pIII fusion) [Phage-505] | 0.07
* YCDGHAPQWMAKCL (on phage, pIII fusion) [Phage-457] | 0.1
* YCDGHSQEYMEKCL (on phage, pIII fusion) [Phage-564] | 0.06
* YCAGHLPEYMGKCL (on phage, pIII fusion) [Phage-496] | 0.07
* YCEGHSLMYMWKCL (on phage, pIII fusion) [Phage-474] | 0.08
* YCEGHSQEYMAKCL (on phage, pIII fusion) [Phage-596] | 0.06
* YCDGHATEYMQKCL (on phage, pIII fusion) [Phage-484] | 0.1
